target: Human Topoisomerase IIα (Homo sapiens, UniProt P11388); construct: purchased USB, Affymetrix, Waltham, MA, USA; assay: Topoisomerase II relaxation assay (supercoiled pBR322); format: biochemical; settings: 20 μM compound; read-out: Topo II Inhibition (%) 20 μM
Sequence (P11388 whole entry): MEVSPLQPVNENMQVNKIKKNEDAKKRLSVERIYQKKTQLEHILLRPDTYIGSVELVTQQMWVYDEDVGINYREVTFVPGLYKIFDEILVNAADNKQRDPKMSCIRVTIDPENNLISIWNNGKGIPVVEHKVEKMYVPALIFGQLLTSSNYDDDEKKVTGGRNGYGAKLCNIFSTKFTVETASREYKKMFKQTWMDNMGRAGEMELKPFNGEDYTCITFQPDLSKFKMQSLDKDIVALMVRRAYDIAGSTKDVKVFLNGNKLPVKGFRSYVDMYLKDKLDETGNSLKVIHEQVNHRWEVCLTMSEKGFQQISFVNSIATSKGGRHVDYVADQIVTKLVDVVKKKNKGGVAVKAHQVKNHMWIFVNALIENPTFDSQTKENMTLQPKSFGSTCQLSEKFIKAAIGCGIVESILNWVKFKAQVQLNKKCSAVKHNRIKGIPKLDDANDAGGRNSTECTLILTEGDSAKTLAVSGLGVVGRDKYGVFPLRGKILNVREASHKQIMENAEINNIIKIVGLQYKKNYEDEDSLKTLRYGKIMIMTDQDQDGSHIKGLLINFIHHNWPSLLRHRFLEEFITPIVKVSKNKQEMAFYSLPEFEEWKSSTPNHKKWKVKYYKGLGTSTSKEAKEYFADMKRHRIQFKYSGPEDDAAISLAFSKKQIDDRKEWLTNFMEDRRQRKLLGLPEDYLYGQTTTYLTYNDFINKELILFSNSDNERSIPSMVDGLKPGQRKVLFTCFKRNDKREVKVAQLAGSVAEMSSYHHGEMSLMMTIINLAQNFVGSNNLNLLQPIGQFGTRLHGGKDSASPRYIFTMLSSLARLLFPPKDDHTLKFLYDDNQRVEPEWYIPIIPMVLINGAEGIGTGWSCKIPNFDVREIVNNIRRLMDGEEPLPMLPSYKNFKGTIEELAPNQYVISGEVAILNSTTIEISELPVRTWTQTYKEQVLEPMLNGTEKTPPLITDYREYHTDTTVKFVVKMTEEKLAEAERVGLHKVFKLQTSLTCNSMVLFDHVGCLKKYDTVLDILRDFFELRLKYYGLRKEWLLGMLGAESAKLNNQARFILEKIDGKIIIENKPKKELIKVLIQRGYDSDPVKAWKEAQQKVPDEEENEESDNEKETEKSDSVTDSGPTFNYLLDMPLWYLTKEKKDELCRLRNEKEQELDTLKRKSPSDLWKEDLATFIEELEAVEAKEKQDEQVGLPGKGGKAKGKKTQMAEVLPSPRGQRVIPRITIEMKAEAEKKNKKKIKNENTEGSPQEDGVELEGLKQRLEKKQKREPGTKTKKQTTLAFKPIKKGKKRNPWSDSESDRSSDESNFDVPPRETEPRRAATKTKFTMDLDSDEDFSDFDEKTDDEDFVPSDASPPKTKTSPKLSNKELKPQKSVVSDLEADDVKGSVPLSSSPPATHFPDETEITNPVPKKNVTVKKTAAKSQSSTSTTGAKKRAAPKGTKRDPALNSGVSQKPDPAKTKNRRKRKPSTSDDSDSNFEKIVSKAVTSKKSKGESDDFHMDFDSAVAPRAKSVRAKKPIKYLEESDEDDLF
metric_name: inhibition at 20 µM (%)

Lookup: Entry under review: Cc1ccc2[nH]c3c(c2c1)C[C@@]1(C)C(CC[C@]2(C)C1CC=C1C4[C@@H](C)[C@H](C)CC[C@]4(C(=O)NCCCN4CCN(C)CC4)CC[C@]12C)C3(C)C (some centres unmarked) . Reported inhibition at 20 µM?
Found: 43.2

Lookup: Same lookup for CCN(CC)CCNC(=O)[C@]12CC[C@@H](C)[C@H](C)C1C1=CCC3[C@@]4(C)Cc5c([nH]c6ccc(C)cc56)C(C)(C)C4CC[C@@]3(C)[C@]1(C)CC2 (some centres unmarked) , please.
Found: 38.3

Lookup: Same lookup for Cc1ccc2[nH]c3c(c2c1)C[C@@]1(C)C(CC[C@]2(C)C1CC=C1C4[C@@H](C)[C@H](C)CC[C@]4(C(=O)NCCCN(C)C)CC[C@]12C)C3(C)C (some centres unmarked) , please.
Found: 38.2

Lookup: Same lookup for Cc1ccc2[nH]c3c(c2c1)C[C@@]1(C)C(CC[C@]2(C)C1CC=C1C4[C@@H](C)[C@H](C)CC[C@]4(C(=O)NCCCNC(=O)[C@]45CC[C@@H](C)[C@H](C)C4C4=CCC6[C@@]7(C)Cc8c([nH]c9ccc(C)cc89)C(C)(C)C7CC[C@@]6(C)[C@]4(C)CC5)CC[C@]12C)C3(C)C (some centres unmarked) , please.
Found: 9.8

Lookup: Same lookup for Cc1ccc2[nH]c3c(c2c1)C[C@@]1(C)C(CC[C@]2(C)C1CC=C1C4[C@@H](C)[C@H](C)CC[C@]4(C(=O)NCCCN4CCOCC4)CC[C@]12C)C3(C)C (some centres unmarked) , please.
Found: 31.5

Lookup: Same lookup for Cc1ccc2[nH]c3c(c2c1)C[C@@]1(C)C(CC[C@]2(C)C1CC=C1C4[C@@H](C)[C@H](C)CC[C@]4(C(=O)NCCCCNC(=O)[C@]45CC[C@@H](C)[C@H](C)C4C4=CCC6[C@@]7(C)Cc8c([nH]c9ccc(C)cc89)C(C)(C)C7CC[C@@]6(C)[C@]4(C)CC5)CC[C@]12C)C3(C)C (some centres unmarked) , please.
Found: 8.1

Lookup: Same lookup for Cc1ccc2[nH]c3c(c2c1)C[C@@]1(C)C(CC[C@]2(C)C1CC=C1C4[C@@H](C)[C@H](C)CC[C@]4(C(=O)NCCN4CCOCC4)CC[C@]12C)C3(C)C (some centres unmarked) , please.
Found: 26.8

Lookup: Same lookup for Cc1ccc2[nH]c3c(c2c1)C[C@@]1(C)C(CC[C@]2(C)C1CC=C1C4[C@@H](C)[C@H](C)CC[C@]4(C(=O)NCCNC(=O)[C@]45CC[C@@H](C)[C@H](C)C4C4=CCC6[C@@]7(C)Cc8c([nH]c9ccc(C)cc89)C(C)(C)C7CC[C@@]6(C)[C@]4(C)CC5)CC[C@]12C)C3(C)C (some centres unmarked) , please.
Found: 9.7

Lookup: Same lookup for Cc1ccc2[nH]c3c(c2c1)C[C@@]1(C)C(CC[C@]2(C)C1CC=C1C4[C@@H](C)[C@H](C)CC[C@]4(C(=O)NCCN(C)C)CC[C@]12C)C3(C)C (some centres unmarked) , please.
Found: 36.9

Lookup: Same lookup for CCN(CC)CCCNC(=O)[C@]12CC[C@@H](C)[C@H](C)C1C1=CCC3[C@@]4(C)Cc5c([nH]c6ccc(C)cc56)C(C)(C)C4CC[C@@]3(C)[C@]1(C)CC2 (some centres unmarked) , please.
Found: 38.9

Lookup: Same lookup for Cc1ccc2[nH]c3c(c2c1)C[C@@]1(C)C(CC[C@]2(C)C1CC=C1C4[C@@H](C)[C@H](C)CC[C@]4(C(=O)NCCCCN4CCCCC4)CC[C@]12C)C3(C)C (some centres unmarked) , please.
Found: 32.8
